test_target: L-arabinose isomerase (Lactiplantibacillus pentosus, UniProt Q6UA74)
Construct: whole cells, sonicated cell-free extract or immobilized, from L-arabinose-induced culture
Sequence (Q6UA74 1-474): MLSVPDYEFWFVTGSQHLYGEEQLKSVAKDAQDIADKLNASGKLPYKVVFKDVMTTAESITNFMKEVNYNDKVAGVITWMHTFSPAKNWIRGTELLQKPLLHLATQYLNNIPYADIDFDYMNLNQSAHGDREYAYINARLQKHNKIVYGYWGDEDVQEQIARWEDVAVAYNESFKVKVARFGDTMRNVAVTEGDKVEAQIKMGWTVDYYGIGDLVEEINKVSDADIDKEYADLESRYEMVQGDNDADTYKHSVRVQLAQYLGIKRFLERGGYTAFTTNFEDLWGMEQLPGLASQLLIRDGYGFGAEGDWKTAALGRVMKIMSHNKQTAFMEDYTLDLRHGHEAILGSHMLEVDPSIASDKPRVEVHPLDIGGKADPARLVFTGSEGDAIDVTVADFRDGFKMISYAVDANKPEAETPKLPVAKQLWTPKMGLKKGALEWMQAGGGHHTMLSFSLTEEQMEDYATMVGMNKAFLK
measurement_notes: L-arabinose isomerase activity assay (cysteine-carbazole ketose determination), enzyme from Lactobacillus pentosus ATCC 8041
Type: biochemical
condition_info: metal ion activator, bioconversion of D-galactose
readout_name: % Activity with activator (None = 100) (%)

{"smiles_code": "[Ca]", "measured_value": 143}
{"smiles_code": "[Mn+2]", "measured_value": 177}
{"smiles_code": "[Mg]", "measured_value": 141}
{"smiles_code": "[Co+2]", "measured_value": 200}
{"smiles_code": "[Zn+2]", "measured_value": 110}
{"smiles_code": "[Fe+2]", "measured_value": 200}

All figures here come from patent US6057135A.
